Test: Half life in rat at 5 umol/kg, iv
Type: ADME, organism-based
Details: in vivo

- structure: "CN(C)c1ccc(-c2c(N)ncnc2C#Cc2ccc(N3CCOCC3)nc2)cc1"
  half-life (min): 30

====

Recorded Activity, one value per entry.
Test system: Mus musculus
Assay: Analgesic activity in mouse assessed as maximal protective effect at 30 umol/kg, ip by hot plate test
Type: functional

- structure: "CN(C)c1ccc(C#Cc2ncnc(N)c2-c2ccc(Cl)cc2)cn1"
  target_entity: "Mus musculus"
  Activity [%]: 73
- structure: "Nc1ncnc(C#Cc2ccc(N3CCOCC3)cc2)c1-c1ccc(Cl)cc1"
  target_entity: "Mus musculus"
  Activity [%]: 67
- structure: "Nc1ncnc(C#Cc2ccc(N3CCOCC3)nc2)c1-c1ccc(Cl)cc1"
  target_entity: "Mus musculus"
  Activity [%]: 100
- structure: "CN(C)c1ccc(-c2c(N)ncnc2C#Cc2ccc(N3CCOCC3)nc2)cc1"
  target_entity: "Mus musculus"
  Activity [%]: 100
- structure: "Nc1ncnc(C#Cc2cnc(N3CCOCC3)nc2)c1-c1ccc(Cl)cc1"
  target_entity: "Mus musculus"
  Activity [%]: 100

Every entry's value here was drawn from ChEMBL document CHEMBL1142899.
